- System: Klebsiella aerogenes DSM 30053
- testMethodNotes: fold change of Putrescine concentration vs plate DMSO controls (fold change (ratio)); higher = more amine produced, active = hit call of the paper (significant change in both replicates, either direction)
- runConditions: incubation time: 27 h, anaerobic, 37 °C
Structures can show the parent of a compound that is named as a salt.
Listing of recorded fold change of Putrescine concentration by entry.
Quick one: just the number, no unit, thanks!

Observe how each entry below is paired with its result.
Incoming: Give recorded fold change of Putrescine concentration. COc1cc([C@@H]2c3cc4c(cc3[C@@H](O[C@@H]3O[C@@H]5CO[C@@H](C)O[C@H]5[C@H](O)[C@H]3O)[C@H]3COC(=O)[C@H]23)OCO4)cc(OC)c1O [Etoposide] (20 µM)
Outgoing: 0.982

Incoming: Give recorded fold change of Putrescine concentration. NC(=O)c1ncn([C@@H]2O[C@H](CO)[C@@H](O)[C@H]2O)c1O [Mizoribine] (20 µM)
Outgoing: 1.02

Incoming: Give recorded fold change of Putrescine concentration. N=C(N)NC(=O)c1nc(Cl)c(N)nc1N [Amiloride hydrochloride dihydrate] (20 µM)
Outgoing: 0.94

---
Incoming: Give recorded fold change of Putrescine concentration. C[C@@H](c1ncncc1F)[C@](O)(Cn1cncn1)c1ccc(F)cc1F [Voriconazole] (20 µM)
Outgoing: 0.999

Incoming: Give recorded fold change of Putrescine concentration. CCN1C(=O)NC(c2ccccc2)C1=O (stereo not drawn) [Ethotoin] (20 µM)
Outgoing: 0.991

Incoming: Give recorded fold change of Putrescine concentration. CC(/C=C1\SC(=S)N(CC(=O)O)C1=O)=C\c1ccccc1 [Epalrestat] (20 µM)
Outgoing: 0.992

Incoming: Give recorded fold change of Putrescine concentration. Cc1ncc(CO)c(CO)c1O [Pyridoxine hydrochloride] (20 µM)
Outgoing: 0.989

Incoming: Give recorded fold change of Putrescine concentration. O=C(O)Cc1ccccc1Oc1ccc(Cl)cc1Cl [Fenclofenac] (20 µM)
Outgoing: 1.01

---

- Tested on: Ruminococcus gnavus DSM 108212
- testMethodNotes: fold change of 2-Phenylethylamine concentration vs plate DMSO controls (fold change (ratio)); higher = more amine produced, active = hit call of the paper (significant change in both replicates, either direction);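 for the amine columns active = adjusted P below 0.05 in both replicates with a change the same way and a mean fold change under 0.8 or over 1.25; inactive = the rest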
- runConditions: incubation time: 27 h, anaerobic, 37 °C
Structures can show the parent of a compound that is named as a salt.
Permitted responses: label 1 = active, label 0 = inactive

Consider the following illustrative entries.
Incoming: # outcome recorded in this test, key = O=C1Cc2cc(CCN3CCN(c4nsc5ccccc45)CC3)c(Cl)cc2N1 [Ziprasidone hydrochloride monohydrate] (20 µM)
Outgoing: label 1

Incoming: # outcome recorded in this test, key = CCN(CC)CCNC(=O)c1cc(Cl)c(N)cc1OC [Metoclopramide monohydrochloride] (20 µM)
Outgoing: label 0

Incoming: # outcome recorded in this test, key = NCCCC[C@H](N[C@@H](CCc1ccccc1)C(=O)O)C(=O)N1CCC[C@H]1C(=O)O [Lisinopril] (20 µM)
Outgoing: label 0

Incoming: # outcome recorded in this test, key = OC[C@@H](O)[C@@H](O)[C@H](O)[C@H](O)CO [Mannitol] (50 µM)
Outgoing: label 0

Incoming: # outcome recorded in this test, key = Nc1nc(=O)[nH]cc1F [Flucytosine] (20 µM)
Outgoing: label 0

Incoming: # outcome recorded in this test, key = CCOc1ccccc1OCC1CNCCO1 (stereo not drawn) [Viloxazine hydrochloride] (20 µM)
Outgoing: label 1

Incoming: # outcome recorded in this test, key = Cc1ncc(C[n+]2csc(CCO)c2C)c(N)n1 [Thiamine hydrochloride] (20 µM)
Outgoing: label 0

---
Incoming: # outcome recorded in this test, key = CCN(CC)C(=O)N1CCN(C)CC1 [Diethylcarbamazine citrate] (20 µM)
Outgoing: label 0
